The measured values listed here are drawn from patent US20250340659A1.

Molecular target: T1, canine OX40L, full length membrane form, expressed on HEK293 cells (canine)
T1 chain: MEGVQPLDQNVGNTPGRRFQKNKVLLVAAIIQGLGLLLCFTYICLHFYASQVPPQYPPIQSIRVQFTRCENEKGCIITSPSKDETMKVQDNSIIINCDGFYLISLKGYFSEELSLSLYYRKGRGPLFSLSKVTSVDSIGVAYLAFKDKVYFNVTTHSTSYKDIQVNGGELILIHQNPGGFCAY
Assay: cell-based or functional assay
Below is a list of entries, each paired with its recorded % Signal Inhibition Rep1 value.
Value expressed in %; do not type the unit.

BINDER: PMX100 (antibody, V domains shown) VH: EVQLVESGGDLVRPGGSLRLSCVASGFTFSSYHMSWVRQAPGKGLQWVAFINSGGSSTTYADVVRGRFTISRDYAKNTLYLQMNSLRAEDTAVYYCASGSIWTHFDYWGQGTLVTVSS VL: SFVLTQLPSVSVTLRQTARITCGGDSIGSKSVYWYQQRLGQAPVLIIYRDSNRPTGIPERFSGASSGNTATLTISGALAEDEADYYCQVWDNSNKAMFGGGTHLTVL
% Signal Inhibition Rep1, %: 49.1

Field: next binder
Record request: % Signal Inhibition Rep1 value, item PMX096 (antibody, V domains shown) VH: EVQLVESGGDLVKPGGSLRLSCVASGFTFNTYHMNWVRQAPGKGLHWVAFINSGGSDTSYADTVQGRFTISRDYAKNTLYLQMNSLRAEDTAVYYCASGYIWTHFDYWGQGTLVTVSS VL: SYVLTQLPSVSVTLRQTAHITCGGDIIGSKSVYWYQQKLGQAPVMIIYRDNNRPTGIPERFSGASSGNTATLTISGSLAEDEADYYCQVWDSRTQALFGGGTHLTVL
36.8
